Molecular target: hGIPR (Homo sapiens, UniProt P48546)
Construct: expressed in transfected cells; host or cells: CHO cells carrying a CRE-luciferase reporter gene
Sequence (P48546 22-466): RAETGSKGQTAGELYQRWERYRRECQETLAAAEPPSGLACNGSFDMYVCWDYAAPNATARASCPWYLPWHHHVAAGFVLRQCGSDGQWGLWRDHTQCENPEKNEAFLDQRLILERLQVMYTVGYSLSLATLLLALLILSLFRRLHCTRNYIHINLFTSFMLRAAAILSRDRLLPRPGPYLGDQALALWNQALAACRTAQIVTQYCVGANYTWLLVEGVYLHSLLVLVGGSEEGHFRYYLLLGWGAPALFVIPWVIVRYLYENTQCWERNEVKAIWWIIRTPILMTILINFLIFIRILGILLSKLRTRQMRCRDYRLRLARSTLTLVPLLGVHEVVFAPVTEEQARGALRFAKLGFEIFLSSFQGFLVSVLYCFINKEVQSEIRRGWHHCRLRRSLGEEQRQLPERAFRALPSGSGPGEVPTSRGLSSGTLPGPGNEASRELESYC
Experiment: hGIPR CreLuc reporter gene assay in 0.5% and 100% plasma
Type: cell-based
Details: CreLuc reporter gene assay, 100% human plasma; read-out: hGIPR 100% hP
Description: Example 1: hGLPR/hGIPR/hNPY2R CreLuc Assay in 0.5% and 100% Plasma CHO and HEK-293 recombinant cell lines express a luciferase reporter gene under control of the cAMP responsive element (CRE). […] Following incubation, assay plates are equilibrated to room temperature, followed by addition of 25 μl of Bright-GIo™ Luciferase reagent, incubation at room temperature for 10 minutes and analysis of luminescence (Envision Reader). […]
pEC50: −log10 of the molar value. Starred links: 1 amine or outer side, 2 acyl side, 3 side chain; linkers in the order of their positions; H or OH if unused. Non-standard residues stand in square brackets, D forms with d. Groups on a side chain read outwards from the residue. *: point of attachment. C20 diacid = O=C(O)CCCCCCCCCCCCCCCCCCC(=O)*; γGlu = O=C(O)[C@H](CCC(=O)[*:2])N[*:1]; εLys = N[C@@H](CCCCN[*:1])C(=O)[*:2]; Tle = CC(C)(C)[C@H](N)C(=O)O; Aib = CC(C)(N)C(=O)O; Ahx = NCCCCCC(=O)O
readout: pEC50

substance | value measured
H-Y[Aib]EGTFTSDYSI[Aib]LEKQAQ[Aib]AFVEWLIK([εLys-γGlu-γGlu-γGlu-γGlu-γGlu-γGlu-C20 diacid])GGPSSGAS[Aib]RHY[Aib]NR[Aib]TRQRY-NH2 [Compound 4] | 8.78
H-Y[Aib]EGTFTSDYSI[Aib]LEKQAQ[Aib]EFVEWLIK([γGlu-γGlu-γGlu-γGlu-C20 diacid])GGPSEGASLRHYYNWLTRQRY-NH2 [Compound 271] | 8.58
H-Y[Aib]EGTFTSDYSI[Aib]LEKQAQ[Aib]AFVEWLIK([εLys-γGlu-γGlu-γGlu-γGlu-γGlu-γGlu-C20 diacid])GGPSSGASLRHYYNWLTRQR[Tle]-NH2 [Compound 191] | 8.70
H-Y[Aib]EGTFTSDYSI[Aib]LEKQAQ[Aib]AFVEWLIK([Ahx-γGlu-γGlu-γGlu-γGlu-γGlu-C20 diacid])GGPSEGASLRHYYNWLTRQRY-NH2 [Compound 301] | 8.49
H-Y[Aib]EGTFTSDYSI[Aib]LEKQAQ[Aib]AFVEWLIK([εLys-γGlu-γGlu-γGlu-γGlu-γGlu-γGlu-C20 diacid])GGPSSGASLRHYYNLLTRQRY-NH2 [Compound 195] | 8.85
